ASSAY: Human HepG2 cell viability assay in 384 well format
Format: toxicity, cell-based
Parameters: dose 125 nL, time 70.5 hour; concentration not given beside the values
CONDITION INFO: HepG2 cells, read-out: Inhibition
Collected cytotoxicity at 70.5 h values appear next to each entry.

COMPOUND	SCALE UNIT	cytotoxicity at 70.5 h
COc1ccc(F)c(-c2nccn2CCN2CCCC2)c1	%	33.7
O=S(=O)(C1CC1)N1CCc2ncnc(-c3ccc(F)cc3)c2CC1	%	0.906
Cc1nc(Nc2cnccn2)cc(C2CCCN2)n1 (stereo unspecified)	%	19.5
Cc1cc(C2CCC2)nc(N2CCC3(CCNC(=O)CC3)CC2)n1	%	-13
CC(=O)c1cc2ncc(C(=O)NC3CC3)cc2[nH]1	%	16
CCOc1ccc(CC(=O)N2CCCC(n3nc(C)nc3C)C2)cc1 (stereo unspecified)	%	-5.27
